System: HT29 colon
method description: NCI tumour cell line growth inhibition, 48 h
quantity measured: TGI

COc1ccc2c(c1)c1c(n2CCN(C)C)-c2cccc(OC)c2CC1
14 µM
CC(=O)Nc1sc([N+](=O)[O-])cc1S(=O)(=O)c1ccc(Cl)cc1
> 52.8 µM
C=CCCCC1SC2=C(CC)CCCN2C1=O (stereo not given)
> 100 µM
COC(=O)[C@]12CC[C@@H](C)[C@H](C)[C@@H]1C1=CC[C@@H]3[C@@]4(C)C(C=O)=C[C@@](C)(COC(=O)c5ccco5)[C@@H]4C(=O)C[C@@]3(C)[C@]1(C)CC2
> 100 µM
Cc1cccc(C(=O)/C=C/SC(=NC#N)SCc2ccccc2)c1
> 100 µM

Consider the molecule shown here: Cc1cccc2c(N)c3cccc(C(=O)NCC[N+](C)(C)Cc4sccc4[N+](=O)[O-])c3nc12 What is its recorded TGI? 18.6 µM

Consider the molecule shown here: COC(=O)Nc1nc2ccc(S(=O)(=O)n3nnc4ccccc43)cc2[nH]1 What is its recorded TGI? > 100 µM

====

TGI overview
System: SR leukemia
method description: NCI tumour cell line growth inhibition, 48 h

Cc1noc(C)c1-c1cc(O)cc(C(O)c2ccccc2)c1 (centres undefined)
> 100 µM
C/C(=C\C1=C(Cl)C(=O)c2ccccc2C1=O)C(=O)O
> 100 µM
CCCC[N+](CCCC)=c1ccc2nc3c(C)cc(N(CC)CC)cc3sc-2c1
1.97 µM
C=CCC(CC=O)(C(=O)OCC)C(=O)OCC
> 100 µM
CCOC(=O)[C@H]1Nc2c(cccc2[N+](=O)[O-])[C@H]2OCC[C@@H]12
> 100 µM
CC1(C)CC(=O)C2=C(C1)S/C(=C1/SC3=C(S1)C(=O)CC(C)(C)C3)S2
> 251 µM
Cc1ccc(S(=O)(=O)/N=C(\N)N(C)N=O)cc1
> 100 µM
O=C(O)c1ccccc1CC1Cc2ccc3c(c2C1=O)CCC3 (centres undefined)
> 100 µM

Consider the molecule shown here: O=C1C2=Nc3ccccc3C(O)N2c2ccccc21 (centres undefined) What is its recorded TGI? > 100 µM

Consider the molecule shown here: C=C1CCCCCCCCCCC12SCCC2CCCCSC (centres undefined) What is its recorded TGI? 53.4 µM

Consider the molecule shown here: CCC(=O)N1NC(=O)C(CC)(CC)C1=O What is its recorded TGI? > 100 µM

Consider the molecule shown here: O=[N+]([O-])c1ccc2c(N3CCC(CCCC4CCN(c5ncnc6cc([N+](=O)[O-])ccc56)CC4)CC3)ncnc2c1 What is its recorded TGI? > 100 µM

Consider the molecule shown here: O=C(Nc1ccc(Oc2ccc3nc(NC(=O)c4ccccc4)[nH]c3c2)cc1)Nc1cc(C(F)(F)F)ccc1F What is its recorded TGI? 20.2 µM

Consider the molecule shown here: C=CC(C)(O)/C=C/C=C(\C)C(CC1OC1(C)C)OC(=O)/C(C)=C\C (centres undefined) What is its recorded TGI? > 100 µM

Consider the molecule shown here: O=C([O][Hg][CH2]C1COC([CH2][Hg][O]C(=O)c2ccccc2)CO1)c1ccccc1 (centres undefined) What is its recorded TGI? > 22.6 µM

Consider the molecule shown here: CC(=O)OCC(=O)O[C@@H]1C[C@]2(C(C)C)O[C@@]1(C)[C@@H]1CC[C@@H](C)[C@H]1[C@@H]2OC(=O)/C=C/c1ccccc1 What is its recorded TGI? > 95.9 µM

Consider the molecule shown here: Cc1ccc(C[P+]2(c3ccccc3)CCCCC2)cc1 What is its recorded TGI? 90.9 µM

Consider the molecule shown here: O=c1[nH]c(=O)n(C2OC(CO)C(O)C2O)c2ccsc12 (centres undefined) What is its recorded TGI? > 100 µM

Consider the molecule shown here: CCOC(=O)C(NCc1ccc2c(c1)OCO2)(NC(=O)c1ccccc1)C(F)(F)F (centres undefined) What is its recorded TGI? > 100 µM
